This collection of values is drawn from the Deep4Chem optical property database.

assay: solvent given as SMILES; conditions: in ClCCl

# Molecular String, emission maximum
measured = [
    ("F[B-]1(F)n2cccc2C=C2c3ccccc3C(c3ccc[nH]3)=[N+]21", "599 nm"),
    ("CCn1c2ccccc2c2cc(-c3cc(-c4ccc5c(c4)c4ccccc4n5CC)ncn3)ccc21", "414 nm"),
    ("C(=C\\c1ccncn1)/c1ccc(-c2ccco2)cc1", "401 nm"),
    ("Cc1cccc2nc(-c3cc(=O)c(OCc4ccccc4)co3)c(NC3CCCCC3)n12", "476 nm"),
]

* * *

assay: solvent given as SMILES; details: in C1CCCCC1
Metric: emission maximum (nm)

# Molecular String, Metric, Test Value
rows = [
    ("CC(C)CCCCN1CCc2c1ccc1c3c(ccc21)CCCC3=O", "emission maximum", 507),
    ("Cc1cc(C)c(B(c2c(C)cc(C)cc2C)c2cc3cc(N(C)C)c4ccccc4c3c3c2ccc2ccccc23)c(C)c1", "emission maximum", 509),
    ("CCCC1(CCC)c2cc(-c3ccc(C(C)(C)C)cc3)ccc2-c2ccc(-c3ccc4c(c3)C(CCC)(CCC)c3cc(-c5ccc6c(c5)C(CCC)(CCC)c5cc(-c7ccc8c(c7)C(CCC)(CCC)c7cc(-c9ccc(C(C)(C)C)cc9)ccc7-8)ccc5-6)ccc3-4)cc21", "emission maximum", 413),
    ("NCc1ccc2ccc3cccc4ccc1c2c34", "emission maximum", 375),
    ("COc1cc(OC)c2c(c1)C(=O)c1ccc(OC)cc1-2", "emission maximum", 537),
    ("Cc1cc(C)c(C)c(-c2ccc3cc(C)c(=O)oc3c2)c1C", "emission maximum", 383),
    ("CCN(CC)c1ccc(-c2nc3c(nc2-c2ccc(B(c4c(C)cc(C)cc4C)c4c(C)cc(C)cc4C)cc2)c2ccccc2n3C)cc1", "emission maximum", 462),
    ("c1ccc(-c2nn(-c3ccccc3)c3nc4ccc(N(c5ccccc5)c5ccccc5)cc4cc23)cc1", "emission maximum", 486.62),
    ("C(=C\\c1ncnc2ccccc12)/c1ccc(N(c2ccccc2)c2ccccc2)cc1", "emission maximum", 463),
    ("CC1=[N+]2C(=C(c3ccc(C=O)cc3)c3ccc(C)n3[B-]2(F)F)C=C1c1cc2n(c1)[B-](F)(F)[N+]1=CC=CC1=C2c1c(C)cc(C)cc1C", "emission maximum", 657),
    ("COc1ccc([Si](C)(C)C)c2ccccc12", "emission maximum", 327),
    ("COc1cc(OC)c2c(c1)C(=O)c1cc(OC)cc(OC)c1-2", "emission maximum", 585),
]

* * *

assay: solvent given as SMILES; conditions: in CO
yes (1) means recorded emission maximum is 400 nm or above; no (0) means it is below 400 nm.

# Compound, Category
rows = [
    ("CC(C)(C)c1ccc(-c2cc3c(-c4ccc(C(C)(C)C)cc4)c4cccc5c(-c6ccc(C(C)(C)C)cc6)cc6c(-c7ccc(C(C)(C)C)cc7)c7cccc2c7c3c6c54)cc1", "yes (1)"),
    ("NS(=O)(=O)c1ccc(N2N=C(c3ccc(O)cc3)CC2c2ccc(F)cc2)cc1 (stereo unspecified)", "yes (1)"),
    ("Cc1ccc(Nc2ccc(Nc3ccc(C)cc3)c3c2C(=O)c2ccccc2C3=O)cc1", "yes (1)"),
    ("Cn1c(/C=C/c2ccc(/C=C/c3nc4ccccc4[nH]3)cc2)[n+](C)c2ccccc21", "yes (1)"),
    ("Nc1ccc2c(c1)Cc1ccccc1-2", "no (0)"),
    ("COc1ccc(-c2ccc3c(c2)nnn3C[C@H](N)C(=O)O)cc1", "yes (1)"),
    ("CCN(CC)c1ccc2cc(-c3ccc(C(F)(F)F)cc3)oc(=O)c2c1", "yes (1)"),
    ("C[Si](C)(C)c1ccc2ccc3c([Si](C)(C)C)ccc4ccc1c2c43", "no (0)"),
    ("Oc1ccc2ccccc2c1-c1nc(-c2ccccc2)c2ccccn12", "yes (1)"),
    ("CC1=N/C(=C\\c2ccccc2N(C)C)C(=O)N1C", "yes (1)"),
    ("COC1=[N+]2C(=C(c3ccc(C)cc3)c3ccc(OC)n3[B-]2(F)F)C=C1", "yes (1)"),
]

* * *

experiment: solvent given as SMILES; details: in CS(C)=O
Listed next: entries and their corresponding emission maximum.

# Molecular String, Readout Units, emission maximum
measured = [
    ("Cc1cccn2c1cc1c3ccccc3nc(-c3cccs3)c12", "nm", 514),
    ("COc1cc(Br)cc2cc(-c3cc4cc(Br)cc(OC)c4oc3=O)oc12", "nm", 387),
    ("Cn1c(=O)c(/N=N/c2cc(S(=O)(=O)O)ccc2C(=O)O)c(O)c2ccccc21", "nm", 486),
    ("C#CCNC1=C2C=CC=[N+]2[B-](F)(F)n2cccc21", "nm", 463),
    ("CCCN1/C(=C/C=C(/C=C/C2=[N+](CCC)c3ccccc3C2(C)C)c2ccncc2)C(C)(C)c2ccccc21", "nm", 655),
]

* * *

test: solvent given as SMILES; details: in O

# Molecular String, emission maximum / nm
measured = [
    ("CCOC(=O)CC[N+]1=c2cc3c(cc2CCC1)=Cc1c(c2ccc(N(C)C)cc2oc1=O)O3", 644),
    ("O=C(O)CCCCCn1c2ccccc2c(=O)c2cc(S(=O)(=O)O)ccc21", 428),
    ("CN(C)CCCN1c2ccccc2CCc2ccccc21", 400),
    ("Cn1c2ccc(S(=O)(=O)O)cc2c(=O)c2cc(S(=O)(=O)O)ccc21", 433),
    ("Oc1ccc2ccccc2c1-c1nc(-c2ccccc2)c2ccccn12", 440),
    ("[NH3+]c1ccc2ccc(O)cc2c1", 357),
    ("CN(C)c1ccc2c(c1)C(C)(C)C1=CC(=[N+](C)C)C=CC1=C2C#Cc1ccccc1", 708),
    ("Cc1cc(O)c(C(C)C)cc1/N=C/c1ccc(O)cc1", 452),
]

* * *

assay: solvent given as SMILES; conditions: in ClC(Cl)Cl
Entries annotated with measured emission maximum

# Molecular String, emission maximum
records = [
    ("CN1C(=CC2=C([O-])C(=CC3=[N+](C)c4ccccc4C3(C)C)C2=C(C#N)C#N)C(C)(C)c2ccccc21", "700 nm"),
    ("CC(C)(C)NC(=O)c1cc2ccc3cccc4ccc(c1C(=O)NC(C)(C)C)c2c34", "392 nm"),
    ("Cc1ccc(S(=O)(=O)/N=c2\\oc3cccc4c5c(-c6ccccc6)oc6cccc(c(c2-c2ccccc2)c34)c65)cc1", "560 nm"),
]

* * *

assay: solvent given as SMILES; conditions: in CC(C)=O

# Molecular String, Readout Units, emission maximum
data = [
    ("CCNc1ccc(NCC)c2c1C(=O)c1ccccc1C2=O", "nm", 671),
    ("CCN(CC)c1ccc2cc(/C=C/C3=CC(/C=C/c4cc5ccc(N(CC)CC)cc5oc4=O)=[O+][B-](F)(F)O3)c(=O)oc2c1", "nm", 710),
    ("O=S(=O)(c1ccc(N2c3ccccc3Oc3ccccc32)cc1)c1ccc(N2c3ccccc3Oc3ccccc32)cc1", "nm", 577),
    ("CCC1(CC)c2cc(B(c3c(C)cc(C)cc3C)c3c(C)cc(C)cc3C)ccc2-c2c1c1c(c3c2C(CC)(CC)c2cc(N(c4ccccc4)c4ccccc4)ccc2-3)C(CC)(CC)c2cc(B(c3c(C)cc(C)cc3C)c3c(C)cc(C)cc3C)ccc2-1", "nm", 550),
]

* * *

assay: solvent given as SMILES; conditions: in CCCCO
So basically: emission maximum at 600 nm or higher? That is 1. Lower than 600 nm? That is -1.

# Molecular String, Category
records = [
    ("Cc1ccc(-c2cc(-c3ccccc3)c(C#N)c(=S)[nH]2)cc1", -1),
    ("CN(C)c1ccc(-c2cc3ccc([N+](=O)[O-])cc3c(=O)o2)cc1", -1),
    ("Cc1cc(O)c(C(C)C)cc1/N=C/c1ccc(O)cc1", -1),
    ("CCNc1ccc(NCC)c2c1C(=O)c1ccccc1C2=O", 1),
    ("CN(C)c1ccc(/C=C/C=C/c2nc3ccccc3o2)cc1", -1),
]

* * *

test: solvent given as SMILES; conditions: in CCCCCC

# Compound, Readout Units, emission maximum
data = [
    ("CC(C)(C)c1ccc(-c2cc3c4c(c2)CCc2cc(-c5ccc(C(C)(C)C)cc5)cc(c2-4)CC3)cc1", "nm", 381.02),
    ("Oc1ccc(/N=C/c2ccccc2Oc2ccccc2)cc1", "nm", 428),
    ("N#CC1=c2c3cccc4c(Br)ccc(c43)n2[B-](F)(F)[n+]2ccccc21", "nm", 545),
    ("CN(C)/C=N\\c1ccc2c3c(cccc13)C(=O)c1ccccc1-2", "nm", 528),
    ("CC1(C)c2ccccc2N(c2ccc(-c3ccc4c(c3)c3cc(-c5ccc(N6c7ccccc7C(C)(C)c7ccccc76)cc5)ccc3c3nc(C#N)c(C#N)nc43)cc2)c2ccccc21", "nm", 507.36),
    ("CCC1=C(C)C2=Cc3c4ccccc4c4n3[B-](c3ccccc3)(Oc3ccccc3-4)[N+]2=C1C (stereo unspecified)", "nm", 636),
    ("CCCCCCC(CCCCCC)N1C(=O)c2cccc3c(-c4cc(OC)c(OC)c(OC)c4)ccc(c23)C1=O", "nm", 440.2),
    ("N#CSC1=CC2=C(c3ccccc3)c3ccc(SC#N)n3[B-](F)(F)[N+]2=C1N1CCOCC1", "nm", 588),
    ("CC(C)(C)c1ccc(-c2nc3c4ccc(-c5ccccc5)cc4c4cc(-c5ccccc5)ccc4c3n2-c2ccc(C(C)(C)C)cc2)cc1", "nm", 385),
    ("COc1ccc2c(c1)c1ccccc1n2-c1nc2ccccc2nc1-n1c2ccccc2c2cc(OC)ccc21", "nm", 508.97),
    ("Nc1ccc(C#Cc2ccc3ccc4ccc(C#Cc5ccc(N)cc5)c5ccc2c3c45)cc1", "nm", 444),
    ("Fc1ccc(-c2cc3c4c(c2)CCc2cc(-c5ccc(F)cc5)cc(c2-4)CC3)cc1", "nm", 374.51),
    ("c1ccc(-n2c(-c3ccc(-c4ccc(-c5ccc(-c6nc7c8ccccc8c8ccccc8c7n6-c6ccccc6)cc5)cc4)cc3)nc3ccccc32)cc1", "nm", 404),
    ("F[B-]1(F)n2cccc2C(c2c3ccccc3c(-c3ccccc3)c3ccccc23)=C2C=CC=[N+]21", "nm", 564),
    ("CC1CCC(O)(c2ccc(-c3cccs3)s2)CC1 (stereo unspecified)", "nm", 408),
    ("Cc1ccc(C2=[N+]3C(=Cc4ccc(C)n4[B-]3(F)F)c3ccccc32)[nH]1", "nm", 613),
    ("C#CCN1C(=O)/C(=C/c2cc(OC(C)C)ccc2OC(C)C)N=C1C", "nm", 440),
    ("CC1=[N+]2C(=C(c3ccc(N4CCCCC4)cc3)c3ccc(C)n3[B-]2(F)F)C=C1", "nm", 520),
    ("C(=C\\c1ccc(Nc2ccccc2)cc1)/c1ccccc1", "nm", 378),
    ("O=C1c2cc(F)ccc2-c2cnccc21", "nm", 486.26),
    ("O=Cc1ccc(-c2ccc(C3=CCCCC3)s2)s1", "nm", 444),
    ("Cc1ccc(/C=N/c2cc(C(C)C)c(O)cc2C)cc1", "nm", 402),
    ("CCC1(CC)c2cc(/C=C/c3cc(C#N)c(/C=C/c4ccc5c(c4)C(CC)(CC)c4cc(N6c7ccccc7Sc7ccccc76)ccc4-5)cc3C#N)ccc2-c2ccc(N3c4ccccc4Sc4ccccc43)cc21", "nm", 518),
    ("Cc1cccc(C)c1Nc1ccc(/C=C/c2cccnc2)cc1", "nm", 383),
    ("c1ccc2nc(-n3c4ccccc4c4ccccc43)c(-n3c4ccccc4c4ccccc43)nc2c1", "nm", 467.18),
    ("CC1=N/C(=C\\c2cc(C#N)cc(N(C)C)c2)C(=O)N1C", "nm", 475),
]
